Values from patent US12636274B2

- tgt: α4β7/MAcDAM-1 (Homo sapiens, UniProt P13612+P26010)
- Sequence (P13612 34-1032): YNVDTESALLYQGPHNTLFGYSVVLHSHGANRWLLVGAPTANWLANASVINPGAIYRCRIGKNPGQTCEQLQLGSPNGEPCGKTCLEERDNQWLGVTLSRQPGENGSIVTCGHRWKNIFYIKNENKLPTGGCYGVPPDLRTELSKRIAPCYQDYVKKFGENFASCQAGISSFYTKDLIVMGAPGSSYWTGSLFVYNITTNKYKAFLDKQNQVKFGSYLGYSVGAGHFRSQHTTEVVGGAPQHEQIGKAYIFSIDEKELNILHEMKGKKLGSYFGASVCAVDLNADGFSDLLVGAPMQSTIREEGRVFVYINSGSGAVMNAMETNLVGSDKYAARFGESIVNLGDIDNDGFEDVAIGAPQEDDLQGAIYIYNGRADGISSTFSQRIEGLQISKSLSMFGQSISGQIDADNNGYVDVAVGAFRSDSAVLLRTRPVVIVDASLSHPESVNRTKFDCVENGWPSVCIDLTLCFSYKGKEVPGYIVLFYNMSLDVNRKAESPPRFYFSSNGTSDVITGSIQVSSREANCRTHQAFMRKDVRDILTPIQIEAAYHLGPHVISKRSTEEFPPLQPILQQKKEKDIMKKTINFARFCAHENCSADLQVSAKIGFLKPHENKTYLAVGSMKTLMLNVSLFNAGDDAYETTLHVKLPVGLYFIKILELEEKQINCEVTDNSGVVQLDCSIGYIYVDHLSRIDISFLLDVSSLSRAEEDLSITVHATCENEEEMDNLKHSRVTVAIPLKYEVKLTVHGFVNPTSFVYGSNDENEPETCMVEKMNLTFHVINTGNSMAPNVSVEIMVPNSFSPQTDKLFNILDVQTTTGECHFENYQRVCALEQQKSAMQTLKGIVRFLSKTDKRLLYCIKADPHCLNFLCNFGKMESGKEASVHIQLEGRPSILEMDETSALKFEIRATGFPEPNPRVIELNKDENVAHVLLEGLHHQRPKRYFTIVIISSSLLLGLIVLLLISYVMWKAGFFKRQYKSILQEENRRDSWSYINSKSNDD
- Sequence (P26010 20-798): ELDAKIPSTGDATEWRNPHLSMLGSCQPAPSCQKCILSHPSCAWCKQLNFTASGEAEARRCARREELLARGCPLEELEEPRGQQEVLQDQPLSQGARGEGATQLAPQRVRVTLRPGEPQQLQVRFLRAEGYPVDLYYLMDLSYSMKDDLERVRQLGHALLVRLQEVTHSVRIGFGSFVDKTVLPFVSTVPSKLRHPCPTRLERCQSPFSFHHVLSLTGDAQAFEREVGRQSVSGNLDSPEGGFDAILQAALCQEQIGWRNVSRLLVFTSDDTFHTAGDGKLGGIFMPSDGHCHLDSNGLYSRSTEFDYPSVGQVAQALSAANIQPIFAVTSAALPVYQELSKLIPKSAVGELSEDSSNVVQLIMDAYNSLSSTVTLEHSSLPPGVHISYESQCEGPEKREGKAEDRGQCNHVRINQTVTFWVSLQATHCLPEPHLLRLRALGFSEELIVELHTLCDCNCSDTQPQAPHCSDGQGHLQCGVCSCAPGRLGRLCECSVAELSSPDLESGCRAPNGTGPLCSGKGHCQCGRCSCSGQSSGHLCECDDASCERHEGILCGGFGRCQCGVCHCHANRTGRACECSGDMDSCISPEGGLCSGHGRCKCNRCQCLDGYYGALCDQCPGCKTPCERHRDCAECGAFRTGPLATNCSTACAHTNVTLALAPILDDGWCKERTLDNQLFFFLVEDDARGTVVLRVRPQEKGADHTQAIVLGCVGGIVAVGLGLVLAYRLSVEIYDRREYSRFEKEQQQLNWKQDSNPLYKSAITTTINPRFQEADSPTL
- assay_procedure: Integrin activation, adhesion α4β7/MAcDAM-1
- condition_description: 50% serum; n = 3; read-out: Integrin Selectivity EC50 α4β7/MAcDAM-1
- Description: Activating all integrins is necessary for firm endothelial cell adhesion for extravasation.
reported_endpoint: EC50 (µM)
The reply should contain only the number, in µM.

In one line, give reported EC50 of the entry O=C(OCCOCCOCCOC(=O)N(Cc1cccs1)Cc1cccs1)N(Cc1cccs1)Cc1cccs1 [Compound 1] .
10

====

- tgt: α5β1/Fibronectin (Homo sapiens, UniProt P05556+P08648)
- Sequence (P08648 42-894 limits assumed): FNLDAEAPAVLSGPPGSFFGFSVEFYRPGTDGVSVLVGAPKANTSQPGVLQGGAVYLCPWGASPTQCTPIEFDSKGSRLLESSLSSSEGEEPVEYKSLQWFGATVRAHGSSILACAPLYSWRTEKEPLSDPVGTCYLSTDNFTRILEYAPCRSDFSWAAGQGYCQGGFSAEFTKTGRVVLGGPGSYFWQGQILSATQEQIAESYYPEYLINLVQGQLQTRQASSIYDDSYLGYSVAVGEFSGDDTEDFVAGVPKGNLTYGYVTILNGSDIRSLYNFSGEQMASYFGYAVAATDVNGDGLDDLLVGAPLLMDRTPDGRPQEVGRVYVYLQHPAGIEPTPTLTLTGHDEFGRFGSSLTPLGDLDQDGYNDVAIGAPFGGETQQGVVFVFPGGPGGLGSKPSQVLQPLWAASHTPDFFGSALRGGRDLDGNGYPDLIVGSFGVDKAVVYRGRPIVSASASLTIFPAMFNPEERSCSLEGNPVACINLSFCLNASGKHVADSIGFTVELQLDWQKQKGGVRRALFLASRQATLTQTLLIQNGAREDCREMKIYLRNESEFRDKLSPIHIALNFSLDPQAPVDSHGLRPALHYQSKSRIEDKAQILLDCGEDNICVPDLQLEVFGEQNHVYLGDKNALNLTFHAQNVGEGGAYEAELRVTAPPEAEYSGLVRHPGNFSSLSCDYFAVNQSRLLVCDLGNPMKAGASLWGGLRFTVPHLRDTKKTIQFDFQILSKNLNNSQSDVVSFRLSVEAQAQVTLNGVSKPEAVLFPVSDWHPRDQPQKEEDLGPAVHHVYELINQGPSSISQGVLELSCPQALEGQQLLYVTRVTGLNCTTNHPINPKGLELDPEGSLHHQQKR
- Sequence (P08648 895-1049 limits assumed): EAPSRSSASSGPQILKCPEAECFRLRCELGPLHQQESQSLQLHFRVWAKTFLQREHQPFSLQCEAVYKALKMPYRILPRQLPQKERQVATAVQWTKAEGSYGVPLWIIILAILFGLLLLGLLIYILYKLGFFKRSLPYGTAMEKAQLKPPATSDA
- Sequence (P05556 21-798): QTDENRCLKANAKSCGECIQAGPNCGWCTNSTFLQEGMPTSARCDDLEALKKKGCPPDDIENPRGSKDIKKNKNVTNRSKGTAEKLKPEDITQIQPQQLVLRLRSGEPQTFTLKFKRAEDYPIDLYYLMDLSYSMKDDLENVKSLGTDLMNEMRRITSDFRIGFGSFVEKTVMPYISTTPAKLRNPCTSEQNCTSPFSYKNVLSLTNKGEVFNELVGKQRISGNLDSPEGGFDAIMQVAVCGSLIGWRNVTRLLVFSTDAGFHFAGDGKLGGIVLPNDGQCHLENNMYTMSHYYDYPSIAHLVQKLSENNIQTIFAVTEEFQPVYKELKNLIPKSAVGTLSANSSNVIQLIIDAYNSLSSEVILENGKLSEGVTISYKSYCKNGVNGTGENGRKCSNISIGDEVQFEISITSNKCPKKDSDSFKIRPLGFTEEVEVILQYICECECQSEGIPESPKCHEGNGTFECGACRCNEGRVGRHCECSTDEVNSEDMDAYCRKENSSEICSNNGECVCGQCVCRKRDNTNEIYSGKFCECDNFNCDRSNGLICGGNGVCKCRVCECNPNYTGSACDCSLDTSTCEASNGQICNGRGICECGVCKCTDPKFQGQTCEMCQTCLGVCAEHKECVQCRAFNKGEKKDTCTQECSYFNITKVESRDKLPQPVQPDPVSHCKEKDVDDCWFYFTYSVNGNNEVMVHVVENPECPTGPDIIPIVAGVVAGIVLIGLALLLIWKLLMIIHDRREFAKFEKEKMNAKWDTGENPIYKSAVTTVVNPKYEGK
- assay_procedure: Integrin activation, adhesion α5β1/Fibronectin
- condition_description: 50% serum; n = 3; read-out: Integrin Selectivity EC50 α5β1/Fibronectin
reported_endpoint: EC50 (µM)
The reply should contain only the number, in µM.

In one line, give reported EC50 of the entry O=C(OCCOCCOCCOC(=O)N(Cc1cccs1)Cc1cccs1)N(Cc1cccs1)Cc1cccs1 .
7.7
